- SYSTEM: T1, UNK ZnF1-3 (human, UniProt Q9C0B0 31-174)
- T1 sequence: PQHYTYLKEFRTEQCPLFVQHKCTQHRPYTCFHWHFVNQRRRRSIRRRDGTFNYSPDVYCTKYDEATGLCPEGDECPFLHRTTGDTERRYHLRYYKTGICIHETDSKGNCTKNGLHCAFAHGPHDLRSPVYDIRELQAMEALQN
- TEST_SUMMARY: nsRBNS (natural sequence RNA bind-n-seq); RBNS binding buffer (assumed for nsRBNS): 25 mM Tris pH 7.5, 150 mM KCl, 3 mM MgCl2, 0.01% Triton X-100, 500 ug/ml BSA, 20 U/ml SUPERase-In, 4 C; UNK is unkempt and MSI1 is Musashi-1; names of the RNAs are library labels; protein concentration not given here; high values mean tight binding
Over roughly 24,000 sequences, “enrichment r” has its median near 0.99; the highest 2% begin near 3.7. A selection follows.
// classify: if (binding signal < 0.5 enrichment R) TRUE else FALSE

Is binding signal of chr14:73742652:73742653:-_ENSG00000133961_ENST00000557597|hu_hu|FALSE|FALSE (ssRNA) RNA: GGGAGUUCUACAGUCCGACGAUCCCCCUUUACCUUUGGCAAGAUUACUUACAACUCAUACAACUUCUUAAUAUCUGAGAACUAUUUAAAAUAUUCUAAAUGCAUAAAAAUAAAGAUUUUGGCUUUUGAUAUAUAUAAUAUUUACAACAGAGGAUUGAGCAUCA strictly below 0.5 enrichment R?
FALSE

Is binding signal of chrX:148369326:148369327:+_ENSMUSG00000025261_ENSMUST00000112622|mus_hu|FALSE|FALSE (ssRNA) RNA: GGGAGUUCUACAGUCCGACGAUCCUUGUCUCGCAUUGAAUCAUUAGCUGUGCACAUCAACACAUUCCAAGCACAAAUUAAGAAAUGCAAACAGAACAAAAAAAUAUAUAUAUAUAUAAUUUUUUCCCCUAUCCAAAGGUUUCACAACAGAGGAUUGAGCAUCA strictly below 0.5 enrichment R?
TRUE

Is binding signal of chr22:36164377:36164378:-_ENSG00000100320_ENST00000405409|hu_mus|FALSE|FALSE (ssRNA) RNA: GGGAGUUCUACAGUCCGACGAUCACGGCCCUCUACCACGGUGCCGUGCAAUUUCUCCCUGGCCCUGUCUGCAUCAGCACUAUUCUCGAAAGUUACGAACCCGAAUCCCUUGGAGCCGCGCUCAUUAAAGAUUAUUUCCACAUCCAACAGAGGAUUGAGCAUCA strictly below 0.5 enrichment R?
FALSE

Is binding signal of chr18:77696836:77696837:-_ENSMUSG00000025427_ENSMUST00000026494|mus_hu|FALSE|FALSE (ssRNA) RNA: GGGAGUUCUACAGUCCGACGAUCCCUCAGAGGAUACCGGCUGGGUGGGCUGAGGUUGUGGGAGGAGCGAGGGAGGAGGAAAGGCAGGUUCAUGAUGGAGAGGCAGGGUUGUGGUGGGGGCGGGGGGGUGCCAAGUGUAGCAAGCAACAGAGGAUUGAGCAUCA strictly below 0.5 enrichment R?
FALSE

Is binding signal of chr11:18422405:18422406:+_ENSG00000134333_ENST00000379412|hu_hu|motif|central (ssRNA) RNA: GGGAGUUCUACAGUCCGACGAUCCAGCUUGGAGUUUGCAGUUACAUUAUAGUCUUUGCCAGAGACAAUCUUUGGUGUUCGGAGGAAAAGGCUGCCAUGUUGGAGAUCCAUCAUCUCUCCCUUCAAUUUGUCUUCGAUGACAUCCAACAGAGGAUUGAGCAUCA strictly below 0.5 enrichment R?
FALSE

Is binding signal of chr11:29608675:29608676:+_ENSMUSG00000020458_ENSMUST00000102843|mus_mus|motif|central (ssRNA) RNA: GGGAGUUCUACAGUCCGACGAUCCUCUGUAUCAGAAGGAAGUUUUUCCUCUGCUUCUUUCGUAAGUACUUUGGGUUUAACGGUGUUGCCCAUUUCUAUUUGAGAUUCCAAAGCAGAAACAUUUGGAAGCAAUAAGGGCACCUUCAACAGAGGAUUGAGCAUCA strictly below 0.5 enrichment R?
FALSE

Is binding signal of 91020203_91021877_1494_CDS_ENSMUSG00000030091_ENSMUST00000032179|mouse|control|control (ssRNA) RNA: GGGAGUUCUACAGUCCGACGAUCCAUGACCCCCUUGACGGUGACUGUGGCAACCAUGGAGCUUGACGAAGACCAGCUGAAGUUCCCACUGCCCCCAUGGGCCUUUAUGGUAUACUGAUAGGCGCCUGUCUUUGGUUGCCAUGGCAACAGAGGAUUGAGCAUCA strictly below 0.5 enrichment R?
FALSE

Is binding signal of chr2:202488911:202488912:-_ENSG00000155755_ENST00000286196|hu_mus|hu_hu_hu_mus_False|88_98 (ssRNA) RNA: GGGAGUUCUACAGUCCGACGAUCAUUGAAACAUUUUCAUAAUAUUGAGAGAUGUUUUCAGCAUUAUGUAACAAAAGCUCAAUUGUAAAUACAUGUAUCUUAUAAAAAUACACUUAAAAACACGAGUGGGGAGCGCAGGCGCCACAACAGAGGAUUGAGCAUCA strictly below 0.5 enrichment R?
FALSE

Is binding signal of chr5:132440482:132440483:+_ENSG00000170606_ENST00000304858|hu_hu|FALSE|FALSE (ssRNA) RNA: GGGAGUUCUACAGUCCGACGAUCUUAAAGCAUAAUUAGAGCUCCUGCCAUGUAAGUCAUAAUGAAAAGUCUGCUGGAUAGCUAGAGCUGUAGCUAUAGCUCAACUUUCCAAAACAAACUUAUUCUUGUAGACACAUGGUUAAACAACAGAGGAUUGAGCAUCA strictly below 0.5 enrichment R?
TRUE

Is binding signal of 109692034_109692919_6190_CDS_ENSG00000148143_ENST00000277225|human|control|control (ssRNA) RNA: GGGAGUUCUACAGUCCGACGAUCGAGGUGAUUGCAGAUGGCUCGGAGCGUUGGGUGCACUUCCACACAGAAUUUACAUUUGUAGCCCACCACUUUCCUCUCCUUGAUCUUUGGCACCUCUUCUAAGUGACCAAAAGGCCUCUCCAACAGAGGAUUGAGCAUCA strictly below 0.5 enrichment R?
FALSE

Is binding signal of chr5:28742860:28742861:+_ENSMUSG00000048271_ENSMUST00000114884|mus_mus|FALSE|FALSE (ssRNA) RNA: GGGAGUUCUACAGUCCGACGAUCAGAAUCUCUUGAAAAAGAAAAGGUGAGAUUUCCUCCUCAAGAAGAGUAUCAAUAUAAUAAGGAUUUAACAAAUGUGGCCAAGCCAAGGGCAGCAUAAGGUUAUGUUCAGGUAAGCAGCUGCAACAGAGGAUUGAGCAUCA strictly below 0.5 enrichment R?
FALSE

Is binding signal of chr7:141450121:141450122:+_ENSG00000106028_ENST00000265304|hu_mus|hu_hu_hu_mus_True|68_88 (ssRNA) RNA: GGGAGUUCUACAGUCCGACGAUCUCAUCCGUUCUAUGCCUUUUCUUUCGUCUGGUCACUCAGAAAUAUAAUAUUAUCAGCUAUGAUUGUUGUUGCUUGCCGCCUCACAUUGUUUUUAUCCAUGUACUCGCCAUAGUCCACUUUCAACAGAGGAUUGAGCAUCA strictly below 0.5 enrichment R?
FALSE

Is binding signal of chr17:87833181:87833182:-_ENSMUSG00000036438_ENSMUST00000040440|perfect_dup|motif|central (ssRNA) RNA: GGGAGUUCUACAGUCCGACGAUCCGGGCUUAGAUAUAGCCAGAGUAAGCCACAUGCAACAUGUUACUUCAUCAAUUUUCGGAAAUAAGGUUUAAGGACAAUGACAGUAAGAUAAGGGAAGAAAACAUGGAGGAAUGAAGUCCUCAACAGAGGAUUGAGCAUCA strictly below 0.5 enrichment R?
FALSE
